Where do these numbers come from? They come from patent US8669253B2.

Biological target: FTase (Homo sapiens)
Construct: made in house; host or cells: Sf9 cells
Assay: FTase enzyme assay (3H-FPP incorporation into H-Ras)
Assay type: biochemical, mammalian
quantity_name: IC50

Any idea what its IC50 is? The compound is CSCCc1c(-c2cccnc2)nn(-c2ccc(Cl)c(Cl)c2)c1OCCCC(=O)N[C@@H](Cc1ccccc1)C(N)=O
> 2000 nM

====

Target: GGTase-I (Homo sapiens, UniProt P53609)
quantity_name: pIC50
Field pIC50 (float): negative decimal logarithm of the concentration in molar.

What pIC50 value was documented for this compound, CSCCc1c(-c2cccnc2)nn(-c2ccc(Cl)c(Cl)c2)c1OCCCC(=O)N[C@@H](Cc1ccccc1)C(N)=O ?
8.08
